# Assayed System: Tryptophan 5-hydroxylase 1 (Homo sapiens)
# Protocol Summary: Inhibition of TPH1 ( unknown origin ) at 1 uM relative to control

- Structure: "CCn1c(=O)[nH]c(=O)c2c1nc(Cn1ccnc1)n2Cc1ccccc1"
  inhibition [%]: 0
- Structure: "CCn1c(=O)[nH]c(=O)c2[nH]c(Cc3cn4ccsc4n3)nc21"
  inhibition [%]: 10.2
- Structure: "CCn1c(=O)[nH]c(=O)c2c1nc(Cc1cn3ccsc3n1)n2CC(=O)c1ccc(F)cc1"
  inhibition [%]: 62.6
- Structure: "CCn1c(=O)[nH]c(=O)c2c1nc(Cc1cn3ccsc3n1)n2CC(=O)c1ccc(O)cc1"
  inhibition [%]: 94.3
- Structure: "CCn1c(=O)[nH]c(=O)c2c1nc(Cc1cn3ccsc3n1)n2CC(=O)c1ccc(Cl)cc1"
  inhibition [%]: 66
- Structure: "CCn1c(=O)n(Cc2ccccc2)c(=O)c2c1nc(Cc1cn3ccsc3n1)n2Cc1ccccc1"
  inhibition [%]: 6.2
- Structure: "CCn1c(=O)[nH]c(=O)c2c1nc(Cc1cn3ccsc3n1)n2Cc1ccccc1"
  inhibition [%]: 48.6
- Structure: "CCn1c(=O)[nH]c(=O)c2c1nc(Cc1cn3ccsc3n1)n2CC(=O)c1ccc(-c2ccccc2)cc1"
  inhibition [%]: 32.6
- Structure: "CCn1c(=O)[nH]c(=O)c2c1nc(Cc1cn3ccsc3n1)n2CC(=O)c1ccc(OC(C)=O)cc1"
  inhibition [%]: 80.8
- Structure: "CCn1c(=O)[nH]c(=O)c2c1nc(C)n2Cc1ccccc1"
  inhibition [%]: 0
